max response by entry:
assay: qHTS Assay for Lipid Storage Modulators (AID 1519); conditions: Drosophila S3 cells, BODIPY lipid droplet/cell ratio, laser cytometry; measured here: lipid channel max response; cells loaded with oleic acid
Records with an inconclusive call do not appear.
Return type: number; implicit unit %.

Answered cases to consult:
{"MOLECULE": "O=C(Nc1cccc(F)c1)N1CC[C@@]2(CCCN(C(=O)c3cccc(F)c3)C2)C1", "max response, %": 22.3}
{"MOLECULE": "O=C(c1ccco1)N1CCC2(CC1)CN(Cc1cc(C(F)(F)F)cc(C(F)(F)F)c1)C2", "max response, %": 7.42}

For the molecule COCCNc1ncnc2ccc(-c3cccc(NS(C)(=O)=O)c3)cc12 , what max response is on record?
-7.54

Try this molecule next: c1ccc(-c2ccc(N3CC4(CCNCC4)C3)cc2)cc1
-25.6

Try this molecule next: COc1ccc(-c2nc3cnc(N4CCOCC4)nc3n(C)c2=O)cc1
5.75
